Target: T1, cloned human SRIF receptor SSTR5 (human, UniProt P35346 1-364)
T1 construct: whole, on cells; assayed as cryostat sections of membrane pellets of the transfected cells; also called hSSTR5
T1 sequence (P35346 whole entry): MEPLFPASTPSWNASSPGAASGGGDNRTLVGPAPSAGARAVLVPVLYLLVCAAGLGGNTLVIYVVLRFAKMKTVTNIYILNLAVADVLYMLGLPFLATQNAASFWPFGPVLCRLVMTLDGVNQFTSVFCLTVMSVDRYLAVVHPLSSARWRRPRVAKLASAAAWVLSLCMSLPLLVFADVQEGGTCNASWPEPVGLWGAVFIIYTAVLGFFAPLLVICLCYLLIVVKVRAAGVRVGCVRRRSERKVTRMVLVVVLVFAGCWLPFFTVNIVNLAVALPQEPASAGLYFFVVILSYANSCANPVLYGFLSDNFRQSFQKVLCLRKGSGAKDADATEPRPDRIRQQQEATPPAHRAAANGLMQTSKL
Experiment: radioligand displacement (125I-[Leu8,D-Trp22,Tyr25]SRIF-28), membrane pellet sections
pIC50: −log10 of the molar value. Bridge positions count the residues as written; N and C are the ends. Square brackets hold non-standard residues; d marks the D form. * marks the point of attachment. d2Nal(3S-Me) = C[C@@H](c1ccc2ccccc2c1)[C@@H](N)C(=O)O; Phe(4-NH2) = Nc1ccc(C[C@H](N)C(=O)O)cc1; Carbamoyl = NC(=O)*
Parameter Measured: pIC50

Guide cases for pIC50, answers given:
Binder	pIC50
H-CFY[d2Nal(3S-Me)]KTFC-OH (disulfide 1-8; SMILES C[C@@H](O)[C@@H]1NC(=O)[C@H](CCCCN)NC(=O)[C@@H]([C@@H](C)c2ccc3ccccc3c2)NC(=O)[C@H](Cc2ccc(O)cc2)NC(=O)[C@H](Cc2ccccc2)NC(=O)[C@@H](N)CSSC[C@@H](C(=O)O)NC(=O)[C@H](Cc2ccccc2)NC1=O, also called Peptide No. 17) [(cyclo)H-Cys-Phe-Tyr-threo-(2R,3S)C^βMe-2Nal-Lys-Thr-Phe-Cys-OH]	7.74
H-CFA[dW]KTFC-OH (disulfide 1-8; SMILES C[C@@H]1NC(=O)[C@H](Cc2ccccc2)NC(=O)[C@@H](N)CSSC[C@@H](C(=O)O)NC(=O)[C@H](Cc2ccccc2)NC(=O)[C@H]([C@@H](C)O)NC(=O)[C@H](CCCCN)NC(=O)[C@@H](Cc2c[nH]c3ccccc23)NC1=O, synthetic cyclic octapeptide; also called Peptide 11; Peptide No. 11) [(cyclo)H-Cys-Phe-Ala-D-Trp-Lys-Thr-Phe-Cys-OH]	6.70

1. Carbamoyl-CF[Phe(4-NH2)][dW]KTYC-OH (disulfide 1-8, synthetic cyclic octapeptide; also called Peptide No. 10A) [(cyclo)Cbm-Cys-Phe-4Aph-D-Trp-Lys-Thr-Tyr-Cys-OH]
2. H-CF[Phe(4-NH2)][dW]KTFC-OH (disulfide 1-8, synthetic cyclic octapeptide; also called Peptide No. 2) [(cyclo)H-Cys-Phe-4Aph-D-Trp-Lys-Thr-Phe-Cys-OH]
Request: Hi! Which is lower in terms of pIC50, the first one 1 or the second one 2 ? Refer to your chosen entry by its label in the reply.
Result: 1
(1: 6.96, 2: 7.52)
